Each recorded value in this set is attributed to patent US5760036A.

molecular target: HIV protease (Human immunodeficiency virus type 1 group M subtype B, UniProt P04585); construct: and purified protease; assay: HIV Protease Assay; format: biochemical; conditions: pH 5.5, 10 μM inhibitor, 4% DMSO, 450 μM substrate, pH 5.5, 30 minutes at 37° C., RP-HPLC; read-out: HIV Protease % Inhibition at 10 μM
Counter-ions that a name gives are not always drawn.

- molecule: "CC(C)(C)CCN[C@@H](Cc1ccccc1)[C@H](O)CNC[C@@H](O)[C@H](Cc1ccccc1)NC(=O)OC(C)(C)C"
  inhibition at 10 µM / %: 15
- molecule: "CC(C)(C)OC(=O)N[C@@H](Cc1ccccc1)[C@H](O)CNC[C@@H](O)[C@H](Cc1ccccc1)NC(=O)OC1CCOC1 (some centres unmarked)"
  inhibition at 10 µM / %: 100
- molecule: "COCCCCOc1ccc(C[C@H](NC(=O)OC(C)(C)C)[C@H](O)CNC[C@@H](O)[C@H](Cc2ccccc2)NC(=O)OC(C)(C)C)cc1"
  inhibition at 10 µM / %: 99
- molecule: "CC(C)(C)OC(=O)N[C@@H](Cc1ccccc1)[C@H](O)CNC[C@@H](O)[C@H](Cc1ccccc1)NC(=O)[C@@H](NC(=O)[C@H](Cc1ccccc1)NC=O)C(C)(C)C (relative stereo)"
  inhibition at 10 µM / %: 100
- molecule: "CC(C)[C@H](NC(=O)CNC(=O)OC(C)(C)C)C(=O)N[C@@H](Cc1ccccc1)[C@H](O)CNC[C@@H](O)[C@H](Cc1ccccc1)NC(=O)[C@@H](NC(=O)CNC(=O)OC(C)(C)C)C(C)C"
  inhibition at 10 µM / %: 99
- molecule: "CC(C)(C)OC(=O)N[C@@H](Cc1ccccc1)[C@H](O)CNC[C@@H](O)[C@H](Cc1ccc(OCCN2CCOCC2)cc1)NC(=O)OC(C)(C)C"
  inhibition at 10 µM / %: 99
- molecule: "CC(C)(C)OC(=O)N[C@@H](Cc1ccccc1)[C@H](O)CNC[C@@H](O)[C@H](Cc1cccc(OCc2ccccc2)c1)NC(=O)OC(C)(C)C"
  inhibition at 10 µM / %: 100
- molecule: "CC(C)(C)OC(=O)N[C@@H](Cc1ccccc1)[C@H](O)CNC[C@@H](O)[C@H](Cc1ccccc1)NC(=O)c1ccc2ccccc2c1"
  inhibition at 10 µM / %: 72
- molecule: "CC(C)[C@H](N)C(=O)N[C@@H](Cc1ccccc1)[C@H](O)CNC[C@@H](O)[C@H](Cc1ccccc1)NC(=O)OC(C)(C)C"
  inhibition at 10 µM / %: 45
- molecule: "CC(C)[C@H](NC(=O)c1ccc2ccccc2n1)C(=O)N[C@@H](Cc1ccccc1)[C@H](O)CNC[C@@H](O)[C@H](Cc1ccccc1)NC(=O)OC(C)(C)C"
  inhibition at 10 µM / %: 98
- molecule: "CC(C)(C)OC(=O)N[C@@H](Cc1ccccc1)[C@H](O)CNC[C@@H](O)[C@H](Cc1ccc(OCCO)cc1)NC(=O)OC(C)(C)C"
  inhibition at 10 µM / %: 99
- molecule: "CC(OC(=O)N[C@@H](Cc1ccccc1)[C@H](O)CNC[C@@H](O)[C@H](Cc1ccccc1)NC(=O)OC(C)(C)C)c1cccnc1 (some centres unmarked)"
  inhibition at 10 µM / %: 91
- molecule: "CC(C)(C)OC(=O)N[C@@H](Cc1ccccc1)C(O)CN(Cc1ccccc1)CC(O)[C@H](Cc1ccccc1)NC(=O)OC(C)(C)C (some centres unmarked)"
  inhibition at 10 µM / %: 0
- molecule: "CC(C)(C)OC(=O)N[C@@H](Cc1ccccc1)[C@H](O)CNC[C@@H](O)[C@H](Cc1ccc(O)cc1)NC(=O)OC(C)(C)C"
  inhibition at 10 µM / %: 99
- molecule: "CC(C)(CO)OC(=O)N[C@@H](Cc1ccccc1)[C@H](O)CNC[C@@H](O)[C@H](Cc1ccccc1)NC(=O)C1(O)CCCC1(C)C (single isomer, unassigned; isomer a)"
  inhibition at 10 µM / %: 98
- molecule: "CC(C)[C@H](NC(=O)[C@@H](N)Cc1ccccc1)C(=O)N[C@@H](Cc1ccccc1)[C@H](O)CNC[C@@H](O)[C@H](Cc1ccccc1)NC(=O)[C@@H](NC(=O)[C@@H](N)Cc1ccccc1)C(C)C [Compound 92, trihydrochloride]"
  inhibition at 10 µM / %: 100
- molecule: "CC(C)[C@H](NC(=O)OCc1ccccc1)C(=O)N[C@@H](Cc1ccccc1)[C@H](O)CNC[C@H](O)[C@H](Cc1ccccc1)NC(=O)OC(C)(C)C"
  inhibition at 10 µM / %: 71
